Reference source for all entries: patent US20240327502A1

# Substrate: F protein of hMPV B virus (human metapneumovirus subtype B)
# RUN_DESCRIPTION: cell-based or functional assay
Here the recorded PRNT IC50 is given for each entry.
READOUT_KIND: PRNT IC50 (µg/mL)

1) M3B02 (antibody, V domains shown) VH: EVQLVESGGGLVKPGGSLRISCVASEFTLSGYAMNWVRQVPGKGLEWVSSISSSSSYINYADFVKGRFTISRDNAKNSVFLQLNSLRPEDTALYYCVRERPTAILPYLDLWGRGTLVTVSS VL: QSVLTQPPSVSGAPGQRVTISCTGSSSNIGAGYDVQWYQQSPGTAPKLLIHGNNNRPSGVPDRFSGSKSGTSASLAITGLQAEDEADYYCQSYDRSLSGWVFGGGTKLTVL = 1.54
2) M4A05 (antibody, V domains shown) VH: EVQLVESGGGLVKPGGSLRLSCAAFGFSLSGYGMNWVRQAPGKGLQWVSSITASSSYITYRDSLRGRFTISRDNAQNSLYLDMTALRVEDTAVYYCATNGKLPPYFDHWGQGVLVVVSS VL: QSVLTQPPSVSGAPGQRVTISCTGSGSNIGAGYDVHWYQQLPGTAPKLLIYDNNHRASGVPDRVSASWSGTSASLAITGLQAEDEADYYCQSYDRNLEGVVFGGGTKLTVL = 0.0425
3) M2D10 (antibody, V domains shown) VH: QVQLVQSGAEVKKPGASVRISCKPSGRAFLTYDINWVRQAPGQGLEWMAGMNPGSGNAAYAPKFQGRLTMIRNTSISTDYLELSSLTSEDTAVYYCARGEVSMRWRWLDPWGQGSLVTVTS VL: DIQMTQSPSSLSASVGDRVTITCRASQTISNFLNWYQQKPGRAPKVLIYAALNLQSGVPSRFRGSGSGTDFTLTINNLQPEDFAIYYCQQSYITPWTFGQGTKVEIK = 1.34
4) M3A06 (antibody, V domains shown) VH: EVQLVESGGGLVKPGGSLRLSCAASGFTLTSYSMNWVRQAPGKGLEWVSSISSSSSYIHYADSVKGRFTISRDNAKNSVYLQMNSLRAEDTAAYYCARVARELDPFDMWGQGTVVTVAS VL: QSVLTQPPSVSGAPGQRVTISCTGSSSNIGAGYDVHWYQQLPGTAPKLLVYANNNRPSGVPDRFSGSKSGTSASLAITGLQADDEADYYCQSYDRSLSGSVFGGGTKLTVL = 0.416
